test system: human normal liver cells L-O2; assay: MTT cell proliferation (cytotoxicity) assay on human normal liver cells L-O2; format: cell-based; details: Homo sapiens, 48 h, pure compounds; MTT, 48 h, n = 6; read-out: IC50 L-O2 (proliferation inhibition)
measuredProperty: IC50

compound	measuredProperty	valueObserved
C=C1[C@H](OC(C)=O)[C@@H](OC(=O)c2ccccc2)[C@@H](OC(C)=O)C(C)(C)[C@H]2O[C@](O)([C@H](C)C2=O)[C@@]2(OC(C)=O)C[C@H](C)[C@H](OC(C)=O)[C@@H]2[C@H]1OC(C)=O	IC50	> 100 µM
CC(=O)OC1C(C)=CC23C(=O)C(C=C(C)C(OC(=O)c4ccccc4)C12O)C1C(CC3C)C1(C)C (stereo not drawn)	IC50	> 100 µM
C=C1C(OC(=O)c2ccccc2)C(O)C(=O)C(C)(C)C2OC2C(C)C(=O)C2(O)C(C1OC(=O)c1ccccc1)C(OC(C)=O)C(C)(O)C2OC(C)=O (stereo not drawn)	IC50	> 100 µM
